# study system: histamine H4 receptor (Homo sapiens)
# Construct: expressed in transfected cells; host or cells: CHO cells
# experiment: H4 binding, method 1 ([3H]-histamine filtration binding on CHO cell membranes)
# condition details: H4 binding, method 1; Ki calculated from IC50 (Cheng-Prussoff)
Entries are grouped by Ki into these classes: bin 0 = under 20 nM, bin 1 = from 20 nM up to 100 nM, bin 2 = 100 nM and over

Illustrative cases are given below, each with its answer.
**Q:** Consider CC1(N)CCN(c2cc(NCC3CC3)nc(N)n2)C1 (stereo not shown) . To which Ki class does it belong?
**A:** bin 2

**Q:** For this compound, which bin applies? CNC1CN(c2cc(NCc3cccc(F)c3)nc(N)n2)C1
**A:** bin 0

---
**Q:** Which band does CN[C@@H]1CCN(c2cc(NC(C)C)nc(N)n2)C1 fall in?
**A:** bin 2

**Q:** Which category fits this record: CNC1CN(c2cc(NCC3CC3)nc(N)n2)C1
**A:** bin 0

**Q:** Class (by measured Ki) for CN[C@@H]1CCN(c2cc(NCc3ccccc3)nc(N)n2)C1
**A:** bin 2

**Q:** Into which category would you place CNC1CN(c2cc(NC3CCC3)ncn2)C1 ?
**A:** bin 0

**Q:** Which class holds CN[C@H]1CCN(c2cc(NCC(C)(C)C)nc(N)n2)C1 ?
**A:** bin 0

**Q:** Hi there! Could you help me figure out the category for CCCNc1cc(N2CC(NC)C2)ncn1 please?
**A:** bin 1

###

# study system: histamine H4 receptor (Homo sapiens, UniProt Q9H3N8)
# Construct: expressed in transfected cells; host or cells: CHO cells
# Sequence (Q9H3N8 whole entry): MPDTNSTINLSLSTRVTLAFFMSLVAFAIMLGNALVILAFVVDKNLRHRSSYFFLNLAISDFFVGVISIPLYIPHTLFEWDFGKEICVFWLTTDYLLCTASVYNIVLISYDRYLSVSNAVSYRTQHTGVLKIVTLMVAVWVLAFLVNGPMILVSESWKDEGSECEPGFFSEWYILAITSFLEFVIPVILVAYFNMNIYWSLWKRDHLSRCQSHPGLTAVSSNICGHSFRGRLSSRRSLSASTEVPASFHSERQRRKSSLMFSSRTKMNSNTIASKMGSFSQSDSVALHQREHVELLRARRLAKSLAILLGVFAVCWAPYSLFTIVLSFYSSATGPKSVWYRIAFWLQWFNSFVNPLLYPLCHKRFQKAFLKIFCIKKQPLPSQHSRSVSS
# experiment: H4 binding, method 1 ([3H]-histamine filtration binding on CHO cell membranes)
# condition details: H4 binding, method 1; Ki calculated from IC50 (Cheng-Prussoff)
// NB: equality with 200 nM counts as n; only Ki strictly below is y

See these solved cases before continuing.
**Q:** Consider the compound CC(C)Nc1cc(N2CCN(C)CC2)ncn1 . Is its Ki strictly less than 200 nM?
**A:** y

**Q:** I wonder whether CNC1CCCN(c2cc(NCC(C)C)nc(N)n2)C1 (stereo not shown) has Ki below 200 nM. Can you tell?
**A:** n

**Q:** Hello, is Ki of the following compound strictly smaller than 200 nM? C[C@H]1CN(c2cc(NCc3ccc(F)cc3)nc(N)n2)CCN1
**A:** n

**Q:** State whether 200 nM exceeds Ki recorded for CNC1CN(c2cc(N3CCCCC3)nc(N)n2)C1 .
**A:** n

**Q:** Strictly below 200 nM in Ki? CNC1CN(c2cc(NCCC(C)C)nc(N)n2)C1
**A:** y

Further cases:
**Q:** Just wondering, is Ki of CN(C)[C@H]1CCN(c2cc(NCCC(C)(C)C)ncn2)C1 below 200 nM?
**A:** n

**Q:** is_below(Ki, 200 nM) for CC(C)(C)CNc1cc(N2CC(N)C2)nc(N)n1 ?
**A:** y

**Q:** Take the compound CN1CCCC(Nc2cc(NCCC(C)(C)C)ncn2)C1 (stereo not shown) and say whether its Ki is less than 200 nM.
**A:** n

**Q:** For CN1CCC(N(C)c2cc(NCCC(C)(C)C)ncn2)CC1 , is the recorded Ki below the cut-off of 200 nM?
**A:** n

Where do the numbers come from? From patent US7943628B2.
